# TARGET_DESC: NADPH oxidase 2 (Homo sapiens) (UniProt P04839)
# Sequence (P04839 whole entry, looked up): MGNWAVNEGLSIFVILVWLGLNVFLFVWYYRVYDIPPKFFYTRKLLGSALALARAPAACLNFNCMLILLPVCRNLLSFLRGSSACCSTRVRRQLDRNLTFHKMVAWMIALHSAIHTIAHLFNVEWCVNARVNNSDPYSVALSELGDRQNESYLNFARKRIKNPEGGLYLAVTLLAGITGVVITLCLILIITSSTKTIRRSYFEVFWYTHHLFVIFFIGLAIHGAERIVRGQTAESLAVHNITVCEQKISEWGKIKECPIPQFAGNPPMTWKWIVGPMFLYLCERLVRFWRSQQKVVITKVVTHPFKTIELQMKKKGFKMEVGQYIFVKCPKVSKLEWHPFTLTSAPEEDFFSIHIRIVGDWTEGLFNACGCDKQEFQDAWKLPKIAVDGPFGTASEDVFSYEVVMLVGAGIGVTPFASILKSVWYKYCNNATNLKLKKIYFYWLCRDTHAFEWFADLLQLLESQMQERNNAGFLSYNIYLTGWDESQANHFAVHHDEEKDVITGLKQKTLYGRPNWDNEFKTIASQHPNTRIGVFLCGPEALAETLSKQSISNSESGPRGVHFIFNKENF
# ASSAY_TEXT: NOX2-dependent H2O2 signal modulators, primary screen, NOX inhibitor project, cell-based, HEK293-NOX2, PMA-stimulated, Amplex Red fluorescence (AID 1159); further: test concentration not given here
# CONDITION_DESCRIPTION: 45 min, higher = more signal, called active from +8 up or from −8 down
The entries below come with measured z-score values attached.

# COMPOUND, z-score
measured = [
    ("NC(=O)NCC#Cc1ccc2c(c1)[C@]1(C(=O)N2)[C@H](c2ccc(O)cc2)N2[C@H](c3ccccc3)[C@H](c3ccccc3)OC(=O)[C@H]2[C@@H]1C(=O)N1CCCCCCC1", 1.71),
    ("COCCCNC(=O)[C@@]1(Sc2ccc(C)cc2)CC(=O)N(Cc2ccccc2)[C@@H]1c1ccc(CO)cc1I", 1.26),
    ("COCC1=C2[C@@H](CCc3ccccc3)OB(O)C[C@@H]2n2c(=O)n(-c3ccccc3)c(=O)n2C1", -0.421),
    ("Cc1ccc(F)cc1S(=O)(=O)N[C@@H]1CCN(Cc2ccc(CC(C)C)cc2)C1", -0.0569),
    ("C=C(/C(=C/C[C@H](OC(=O)c1ccncc1)c1ccc(OCCO)cc1)c1cnc2ccccc2c1)C(C)C", -0.513),
    ("Cc1ccc(S(=O)(=O)N[C@@H]2COC(=O)[C@H](C)COC(=O)CC=C[C@H]2C)cc1", -0.108),
    ("COc1ccc(-c2ccc3c(n2)CCCN3CC(O)CN2CCCc3nc(C)c(C)cc32)cc1 (stereo unspecified)", 1.05),
    ("COC(=O)[C@@H]1CC[C@H](C)[C@@H](c2ccc(C)cc2)N1C(=O)c1ccc(C=NOC(C)CN2CCCCc3nc(C)c(C)cc32)cc1 (stereo partly specified)", -0.202),
    ("O=C1C[C@]2(c3ccc([N+](=O)[O-])cc3)C(=O)N(CCN3CCOCC3)c3cc(CO)ccc3[C@H]2N1CC12CC3CC(CC(C3)C1)C2", 0.194),
    ("O=C(NN=C1C[C@@H](O)[C@@H](O)[C@@H]2[C@@H]3C(=O)N(c4ccc(F)cc4F)C(=O)[C@@H]3CC[C@@H]12)OCc1ccccc1", 1.56),
    ("O=C1C[C@@H](O)[C@@H](O)[C@@H]2[C@@H]3C(=O)N(c4ccc(F)cc4F)C(=O)[C@@H]3CC[C@@H]12", -2.64),
]
